# System: H2122 cells
# ASSAY PROCEDURE: MTT cell viability assay, H2122
# Type: cell-based
# CONDITION LABEL: Homo sapiens, NCI-H2122; H2122 (KRAS G12C), 72 h
MEASUREMENT KIND: pIC50
One number for each entry, as −log10 of the molar value.

Exercise: Give me measured pIC50, please, for this compound: `Nc1ccc(Sc2nc3ccccc3s2)c(Cl)c1`
Solution: 4.40

----------
# Test system: H2122 cells
# ASSAY PROCEDURE: MTT cell viability assay, H2122
# Type: cell-based
# CONDITION LABEL: Homo sapiens, NCI-H2122; H2122 (KRAS G12C), 48 h
MEASUREMENT KIND: IC50

Exercise: Give me measured IC50, please, for this compound: Nc1ccc(Sc2nc3ccccc3s2)c(Cl)c1 [compound 0375-0604]
Solution: > 100 µM

----------
# Test system: H358 cells
# ASSAY PROCEDURE: MTT cell viability assay, H358
# Type: cell-based
# CONDITION LABEL: Homo sapiens, NCI-H358; H358 (KRAS G12C), 72 h
MEASUREMENT KIND: IC50 (µM)
Numbers only, in µM.

Exercise: Give me measured IC50, please, for this compound: `Nc1ccc(Sc2nc3ccccc3s2)c(Cl)c1`
Solution: 63.8

----------
# MEASUREMENT TARGET: UniProtKB P01116
# Sequence (P01116 1-188 isoform P01116-2): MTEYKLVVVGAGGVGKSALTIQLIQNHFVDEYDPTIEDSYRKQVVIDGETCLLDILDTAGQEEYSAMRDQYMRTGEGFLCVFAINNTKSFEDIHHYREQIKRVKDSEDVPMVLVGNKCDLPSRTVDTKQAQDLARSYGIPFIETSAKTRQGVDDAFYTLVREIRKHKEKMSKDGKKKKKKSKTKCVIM
MEASUREMENT KIND: Kd (µM)
Numbers only, in µM.

Exercise: Give me measured Kd, please, for this molecule: `Nc1ccc(Sc2nc3ccccc3s2)c(Cl)c1`
Solution: 11.6
